Numbers sourced from ChEMBL document CHEMBL3585289.

ASSAY METHOD TEXT: Kinetic aqueous solubility of the compound in phosphate buffered saline at pH 7 at 25 degC after 24 hrs by HPLC/DAD method
Format: physicochemical
MEASUREMENT CONTEXT: read-out: Kinetic_solubility
OBSERVATION TYPE: solubility kinetic at 24 h (µM)

Which solubility kinetic at 24 h reading was recorded for the molecule CC(=O)N1CCC(c2cc(NC(=O)c3cnn4cccnc34)n(-c3ccc(C)cc3)n2)CC1 ?
163

Reported solubility kinetic at 24 h, molecule Cc1ccc(-n2nc(C3CCNCC3)cc2NC(=O)c2cnn3cccnc23)cc1 : ____
172

Value lookup for solubility kinetic at 24 h; key = Cc1ccc(-n2nc(C3CCN(C(C)C)CC3)cc2NC(=O)c2cnn3cccnc23)cc1
170

[1] Cc1ccc(-n2nc(C3CCN(C)CC3)cc2NC(=O)c2cnn3cccnc23)cc1
[2] COc1ccc(-c2cc(NC(=O)c3cnn4cccnc34)n(-c3ccc(C)cc3)n2)cn1
[3] Cc1ccc(-n2nc(C3CCOCC3)cc2NC(=O)c2cnn3cccnc23)cc1
[4] Cc1ccc(-n2nc(C3CC3)cc2NC(=O)c2cnn3cccnc23)cc1
Could you please order the items by solubility kinetic at 24 h, going from the lowest number to the highest? Reply with the labels, ordered as the question asks.
2, 3, 4, 1

* * *

ASSAY METHOD TEXT: AUC (0 to 8 hrs) in Sprague-Dawley rat at 10 mg/kg, po administered as cassette dosing
Assay type: ADME, organism-based
Design: dose 10 mg/kg, time < 8 hr, route oral
MEASUREMENT CONTEXT: in vivo
OBSERVATION TYPE: AUC(0-t) at 8 h (µM·h)

Fill in the blank: the reported AUC(0-t) at 8 h of Cc1ccc(-n2nc(N3CCN(C)CC3)cc2NC(=O)c2cnn3cccnc23)nc1 is ____.
1.7

What value of measured AUC(0-t) at 8 h is listed for Cc1ccc(-n2nc(C3CCN(S(C)(=O)=O)CC3)cc2NC(=O)c2cnn3cccnc23)nc1 ?
0.045

[a] CS(=O)(=O)N1CCC(c2cc(NC(=O)c3cnn4cccnc34)n(-c3ccc(C4CC4)cn3)n2)CC1
[b] CC(C)N1CCC(c2cc(NC(=O)c3cnn4cccnc34)n(-c3ccc(C4CC4)cc3F)n2)CC1
[c] Cc1ccc(-n2nc(N3CCN(S(C)(=O)=O)CC3)cc2NC(=O)c2cnn3cccnc23)nc1
Sort the 3 compounds by AUC(0-t) at 8 h; largest first, smallest last. To answer, write out the labels according to the requested order.
c, a, b

* * *

System: Pgp
ASSAY METHOD TEXT: Activity at rat Pgp assessed as apparent permeability by cell-based assay
Format: ADME
MEASUREMENT CONTEXT: not told
OBSERVATION TYPE: Papp (×10⁻⁶ cm/s)
Note: unit ×10⁻⁶ cm/s is implicit; provide only the numeric part.

Give Papp (Pgp) of the following compound: Cc1ccc(-n2nc(N3CCN(C)CC3)cc2NC(=O)c2cnn3cccnc23)nc1
32

* * *

ASSAY METHOD TEXT: Oral bioavailability in Sprague-Dawley rat at 10 mg/kg administered as cassette dosing
Assay type: ADME, organism-based
MEASUREMENT CONTEXT: in vivo
OBSERVATION TYPE: bioavailability (%)
All answers are understood in %, so give the number only.

Any idea what bioavailability was measured for Cc1ccc(-n2nc(N3CCN(C)CC3)cc2NC(=O)c2cnn3cccnc23)nc1 ?
28
